# target desc: mouse TMEM16A mutant Q637A (Mus musculus, UniProt Q8BHY3, Q637A)
# Construct: expressed in transfected cells; host or cells: HEK293T
# measurement notes: Inside-out patch recording of 1PBC block, mutant Q637A
# Assay type: cell-based
# study conditions: -20 mV; 2 µM Ca2+
# Procedure: HEK293T cells (ATCC CRL-1573) were maintained in Dulbecco’s modified Eagle’s medium (DMEM; Sigma-Aldrich) supplemented with 10 U ml^−1 penicillin, 0.1 mg ml^−1 streptomycin (Sigma-Aldrich), 2 mM L-glutamine (Sigma-Aldrich), and 10% FBS (Sigma-Aldrich) in a humidified atmosphere containing 5% CO2 at 37 °C. […]
assay endpoint: pIC50
pIC50 (log units): -log10 of the concentration in mol/L.

If you can, please state the reported pIC50 value of N#Cc1c(C(F)(F)F)cc(O)n2c1nc1ccccc12 .
5.63

###

# target desc: mouse TMEM16A mutant I640A (Mus musculus, UniProt Q8BHY3, I640A)
# Construct: expressed in transfected cells; host or cells: HEK293T
# measurement notes: Inside-out patch recording of 1PBC block, mutant I640A
# Assay type: cell-based
# study conditions: -120 mV; 15 µM Ca2+
assay endpoint: pIC50
In plain terms, pIC50 is the concentration in mol/L turned into minus its base-10 logarithm.

Tell me the measured pIC50 of N#Cc1c(C(F)(F)F)cc(O)n2c1nc1ccccc12 , please.
4.18

###

# target desc: mouse TMEM16A mutant Q637A (Mus musculus, UniProt Q8BHY3, Q637A)
# Construct: expressed in transfected cells; host or cells: HEK293T
# measurement notes: Inside-out patch recording of 1PBC block, mutant Q637A
# Type: cell-based
# study conditions: Q637A; V 60 mV
assay endpoint: pIC50
# pIC50 = -log10(concentration in molar units)

Field request: pIC50 | item: N#Cc1c(C(F)(F)F)cc(O)n2c1nc1ccccc12
6.02

###

# target desc: mouse TMEM16A mutant V599A (Mus musculus, UniProt Q8BHY3, V599A)
# Construct: expressed in transfected cells; host or cells: HEK293T
# measurement notes: Inside-out patch recording of 1PBC block, mutant V599A
# Format: cell-based
# study conditions: 60 mV; 15 µM Ca2+
assay endpoint: pIC50
// scale note: pIC50 = -log10(conc_M); give the bare number

Query (compound): N#Cc1c(C(F)(F)F)cc(O)n2c1nc1ccccc12 [1PBC] ; field requested: pIC50
4.31

###

# target desc: mouse TMEM16A mutant V543A (Mus musculus, UniProt Q8BHY3, V543A)
# Construct: expressed in transfected cells; host or cells: HEK293T
# measurement notes: Inside-out patch recording of 1PBC block, mutant V543A
# Assay type: cell-based
# study conditions: -100 mV; 15 µM Ca2+
assay endpoint: IC50 (µM)
Response body: numeric value in µM, unit text excluded.

// query IC50 value for entry N#Cc1c(C(F)(F)F)cc(O)n2c1nc1ccccc12 [1PBC]
25.7

###

# target desc: mouse TMEM16A mutant G558P (Mus musculus, UniProt Q8BHY3, G558P)
# Construct: expressed in transfected cells; host or cells: HEK293T
# measurement notes: Inside-out patch recording of 1PBC block, mutant G558P
# Assay type: cell-based
# study conditions: -40 mV; 15 µM Ca2+
assay endpoint: pIC50
The meaning of pIC50 here: minus log10 of the concentration in molar units.

Any idea what its pIC50 is? The compound is N#Cc1c(C(F)(F)F)cc(O)n2c1nc1ccccc12
4.98

###

# target desc: mouse TMEM16A mutant I636A (Mus musculus, UniProt Q8BHY3, I636A)
# Construct: expressed in transfected cells; host or cells: HEK293T
# measurement notes: Inside-out patch recording of 1PBC block, mutant I636A
# Type: cell-based
# study conditions: -100 mV; 15 µM Ca2+
# Protocol: HEK293T cells (ATCC CRL-1573) were maintained in Dulbecco’s modified Eagle’s medium (DMEM; Sigma-Aldrich) supplemented with 10 U ml^−1 penicillin, 0.1 mg ml^−1 streptomycin (Sigma-Aldrich), 2 mM L-glutamine (Sigma-Aldrich), and 10% FBS (Sigma-Aldrich) in a humidified atmosphere containing 5% CO2 at 37 °C. […]
assay endpoint: pIC50
Remember, pIC50 is on a log scale: it is -log10 of the molar concentration.

So what's the measured pIC50 for this one? N#Cc1c(C(F)(F)F)cc(O)n2c1nc1ccccc12 [1PBC]
4.72

###

# target desc: mouse TMEM16A mutant I640A (Mus musculus, UniProt Q8BHY3, I640A)
# Construct: expressed in transfected cells; host or cells: HEK293T
# measurement notes: Inside-out patch recording of 1PBC block, mutant I640A
# Type: cell-based
# study conditions: I640A; V 100 mV
assay endpoint: pIC50
To interpret pIC50, take it as minus log10 of a concentration measured in moles per litre.

I am curious: what pIC50 value has been reported for N#Cc1c(C(F)(F)F)cc(O)n2c1nc1ccccc12 [1PBC] ?
4.64

###

# target desc: mouse TMEM16A mutant S517A (Mus musculus, UniProt Q8BHY3, S517A)
# Construct: expressed in transfected cells; host or cells: HEK293T
# measurement notes: Inside-out patch recording of 1PBC block, mutant S517A
# Type: cell-based
# study conditions: S517A; V 120 mV
assay endpoint: pIC50
Note on units: pIC50 is unitless, being -log10 of a concentration expressed in mol/L.

What value of pIC50 has been recorded for this entry: N#Cc1c(C(F)(F)F)cc(O)n2c1nc1ccccc12
5.64

###

# target desc: mouse TMEM16A mutant S517A (Mus musculus, UniProt Q8BHY3, S517A)
# Construct: expressed in transfected cells; host or cells: HEK293T
# Sequence (Q8BHY3 1-960 S517A): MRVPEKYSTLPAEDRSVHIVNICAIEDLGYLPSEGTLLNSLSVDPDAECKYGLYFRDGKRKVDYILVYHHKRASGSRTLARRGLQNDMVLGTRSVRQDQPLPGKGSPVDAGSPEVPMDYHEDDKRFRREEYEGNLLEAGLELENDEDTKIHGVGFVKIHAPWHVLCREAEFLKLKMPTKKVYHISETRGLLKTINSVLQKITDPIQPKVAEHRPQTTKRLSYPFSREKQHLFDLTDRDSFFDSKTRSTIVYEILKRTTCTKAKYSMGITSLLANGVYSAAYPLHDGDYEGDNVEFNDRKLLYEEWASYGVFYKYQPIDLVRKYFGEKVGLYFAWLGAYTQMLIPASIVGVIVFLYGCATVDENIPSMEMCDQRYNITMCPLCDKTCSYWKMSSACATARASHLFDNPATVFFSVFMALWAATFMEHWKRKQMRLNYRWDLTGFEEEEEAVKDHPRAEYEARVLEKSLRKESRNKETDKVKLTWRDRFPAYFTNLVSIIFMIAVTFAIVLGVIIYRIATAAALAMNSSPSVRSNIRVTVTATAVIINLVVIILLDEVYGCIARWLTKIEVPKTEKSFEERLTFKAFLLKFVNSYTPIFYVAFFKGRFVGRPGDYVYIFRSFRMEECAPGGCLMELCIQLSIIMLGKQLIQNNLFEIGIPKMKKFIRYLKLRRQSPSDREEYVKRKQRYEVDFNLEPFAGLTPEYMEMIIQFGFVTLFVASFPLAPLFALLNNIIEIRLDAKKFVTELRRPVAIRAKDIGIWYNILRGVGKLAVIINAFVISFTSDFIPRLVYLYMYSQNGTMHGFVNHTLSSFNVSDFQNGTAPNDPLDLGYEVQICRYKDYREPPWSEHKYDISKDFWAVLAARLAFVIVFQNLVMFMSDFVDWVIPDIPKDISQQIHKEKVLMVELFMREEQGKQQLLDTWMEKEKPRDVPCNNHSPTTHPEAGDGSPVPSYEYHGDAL
# measurement notes: Inside-out patch recording of 1PBC block, mutant S517A
# Type: cell-based
# study conditions: S517A; V -40 mV
# Description: HEK293T cells (ATCC CRL-1573) were maintained in Dulbecco’s modified Eagle’s medium (DMEM; Sigma-Aldrich) supplemented with 10 U ml^−1 penicillin, 0.1 mg ml^−1 streptomycin (Sigma-Aldrich), 2 mM L-glutamine (Sigma-Aldrich), and 10% FBS (Sigma-Aldrich) in a humidified atmosphere containing 5% CO2 at 37 °C. […]
assay endpoint: pIC50
Scale for pIC50: -log10 of concentration given in mol/L; no unit attached.

Form entry - test system: mouse TMEM16A mutant S517A (Mus musculus, UniProt Q8BHY3, S517A); read-out: pIC50; compound: N#Cc1c(C(F)(F)F)cc(O)n2c1nc1ccccc12
5.09

###

# target desc: mouse TMEM16A mutant P595A (Mus musculus, UniProt Q8BHY3, P595A)
# Construct: expressed in transfected cells; host or cells: HEK293T
# measurement notes: Inside-out patch recording of 1PBC block, mutant P595A
# Assay type: cell-based
# study conditions: 100 mV; 2 µM Ca2+
assay endpoint: IC50
Units required after the number.

Report IC50 for N#Cc1c(C(F)(F)F)cc(O)n2c1nc1ccccc12 please.
1480 nM
